Recorded IC50 for the following molecules
target: T. brucei N-myristoyl transferase (Trypanosoma brucei brucei (strain 927/4 GUTat10.1)); assay: biochemical; assay type: biochemical; settings: value with no enzyme tag in the cell; taken as T. brucei NMT; read-out: IC50 (μM) NMT Enzyme
Sequence (Q388H8 1-446): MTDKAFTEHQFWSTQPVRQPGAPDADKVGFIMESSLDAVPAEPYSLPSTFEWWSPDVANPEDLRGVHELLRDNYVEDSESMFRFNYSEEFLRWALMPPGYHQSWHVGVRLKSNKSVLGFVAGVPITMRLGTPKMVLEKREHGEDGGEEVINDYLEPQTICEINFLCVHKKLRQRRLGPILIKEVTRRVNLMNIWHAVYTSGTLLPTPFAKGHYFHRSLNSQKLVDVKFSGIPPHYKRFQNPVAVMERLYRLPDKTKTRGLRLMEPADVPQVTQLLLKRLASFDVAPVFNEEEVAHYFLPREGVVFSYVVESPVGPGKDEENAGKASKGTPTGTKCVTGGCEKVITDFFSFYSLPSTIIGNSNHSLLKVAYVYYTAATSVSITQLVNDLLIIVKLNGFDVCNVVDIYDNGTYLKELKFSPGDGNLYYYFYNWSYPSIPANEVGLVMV
State just the number; it will be interpreted in µM.

Recorded IC50, per entry:
>  <MOLECULE>
Cc1nn(C)c(C)c1N(C)[S+](=O)([O-])c1c(Cl)cc(-c2cccc(CNC3CCCCC3)c2)cc1Cl [DDD88642]

>  <TARGET_OR_TEST_SYSTEM>
T. brucei N-myristoyl transferase (Trypanosoma brucei brucei (strain 927/4 GUTat10.1))

>  <IC50 (µM)>
0.39

$$$$
>  <MOLECULE>
Cc1nn(C)c(C)c1N[S+](=O)([O-])c1ccc(CNCCN2CCCCC2)cc1 [DDD85643]

>  <TARGET_OR_TEST_SYSTEM>
T. brucei N-myristoyl transferase (Trypanosoma brucei brucei (strain 927/4 GUTat10.1))

>  <IC50 (µM)>
8

$$$$
>  <MOLECULE>
Cc1nn(C)c(C)c1N(C)[S+](=O)([O-])c1ccc(CCCCn2ccnc2)cc1 [DDD99746]

>  <TARGET_OR_TEST_SYSTEM>
T. brucei N-myristoyl transferase (Trypanosoma brucei brucei (strain 927/4 GUTat10.1))

>  <IC50 (µM)>
2

$$$$
>  <MOLECULE>
Cc1nn(C)cc1N[S+](=O)([O-])c1ccc(Br)cc1 [DDD88320]

>  <TARGET_OR_TEST_SYSTEM>
T. brucei N-myristoyl transferase (Trypanosoma brucei brucei (strain 927/4 GUTat10.1))

>  <IC50 (µM)>
44.1

$$$$
>  <MOLECULE>
Cc1nn(C)c(C)c1N[S+](=O)([O-])c1ccc(COCCCN(C)C)cc1 [DDD85647]

>  <TARGET_OR_TEST_SYSTEM>
T. brucei N-myristoyl transferase (Trypanosoma brucei brucei (strain 927/4 GUTat10.1))

>  <IC50 (µM)>
66.1

$$$$

Q: # query: IC50 of entry Cc1nn(C)c(C)c1N[S+](=O)([O-])c1ccc(NCCN2CCN(C(C)C)CC2)nc1 [DDD86298]
Ans: 1

Q: # query: IC50 of entry Cc1nn(C)c(C)c1N[S+](=O)([O-])c1ccc(-c2cccc(CN)c2)cc1 [DDD88560]
Ans: 0.054
